# EXPERIMENTAL TARGET: α7 nAChR (Rattus norvegicus)
# Construct: brains (whole brain minus cerebellum) are dissected quickly, weighed and homogenized
# Sequence (Q05941 23-502): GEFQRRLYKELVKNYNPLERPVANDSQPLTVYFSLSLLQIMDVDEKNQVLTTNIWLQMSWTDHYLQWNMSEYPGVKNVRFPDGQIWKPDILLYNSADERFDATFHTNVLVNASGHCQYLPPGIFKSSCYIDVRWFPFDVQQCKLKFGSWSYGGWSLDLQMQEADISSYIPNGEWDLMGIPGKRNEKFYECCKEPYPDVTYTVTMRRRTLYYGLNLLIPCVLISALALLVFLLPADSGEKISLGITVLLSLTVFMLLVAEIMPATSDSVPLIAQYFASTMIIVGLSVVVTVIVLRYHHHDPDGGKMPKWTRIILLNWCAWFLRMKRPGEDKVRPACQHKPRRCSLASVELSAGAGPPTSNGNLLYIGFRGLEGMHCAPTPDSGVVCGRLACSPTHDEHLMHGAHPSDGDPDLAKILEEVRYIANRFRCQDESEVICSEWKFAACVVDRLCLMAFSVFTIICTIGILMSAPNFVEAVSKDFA
# METHOD SUMMARY: [3H]-MLA competition binding assay in rat brain membranes
# TEST SETTINGS: inhibition of [3H]-MLA binding, rat brain homogenate (whole brain minus cerebellum), Cheng-Prusoff
pKi: −log10 of the molar value.

| MOLECULE | EXPERIMENTAL TARGET | SIGN | pKi |
| --- | --- | --- | --- |
| O=C(N[C@H]1C[C@@H]2CCN(C2)C1)c1ccc(Cl)cc1 [Example 3 (3S, 5S), 4-methylbenzenesulfonate] | α7 nAChR (Rattus norvegicus) | < | 6.00 |
| O=C(NC1CC2CCN(C2)C1)c1ccc(Cl)cc1 (racemic) [Example 3 (racemic)] | α7 nAChR (Rattus norvegicus) | = | 6.94 |
| O=C(N[C@H]1CN2CCC1CC2)c1ccc(Cl)cc1 | α7 nAChR (Rattus norvegicus) | = | 7.59 |
| O=C(N[C@@H]1C[C@H]2CCN(C2)C1)c1ccc(Cl)cc1 [Example 3 (3R, 5R), 4-methylbenzenesulfonate] | α7 nAChR (Rattus norvegicus) | = | 7.74 |
